Source: patent US12606557B2

- Method description: Blood pharmacokinetics after a single intraperitoneal dose
- Type: in vivo, male CD1 mice
- Conditions used: male, CD1, mouse, in vivo, 10.4 mg/kg, 10.4 mg/kg IP, 8 hr; read-out: Blood Concentration, Mean
Reported metric: concentration at 8 hr

Challenge: # concentration at 8 hr lookup, item COc1ccc(Cn2ccc3ccc(C(=O)NO)cc32)cc1
Response given: 22.6 ng/mL

* * *

- Method description: Plasma pharmacokinetics after a single intraperitoneal dose
- Assay type: in vivo, male CD1 mice
- Conditions used: male, CD1, mouse, plasma, intraperitoneal, 10 mg/kg, 10 mg/kg IP, 1 hr; read-out: Plasma Concentration, Mean
Reported metric: concentration at 1 hr (ng/mL)
Write it as a number; the unit ng/mL goes unstated.

Challenge: # concentration at 1 hr lookup, item COc1ccc(Cn2ccc3ccc(C(=O)NS(C)(=O)=O)cc32)cc1
Response given: 34600
